Target: T1, HLA-A*01:01 (human)
T1 construct: MHC class I monomer first loaded with a UV-sensitive peptide (not identified) that is cleaved by UV irradiation and exchanged for the tested peptide; captured on streptavidin plates, detected with anti-β2m; also called peptide-receptive MHC molecules
Assay: UV-ligand exchange, anti-b2m ELISA
EXPERIMENTAL_ENDPOINT: peptide exchange yield

Check out these entries, answers already filled in.
| BINDER | EXPERIMENTAL_ENDPOINT | RESULT |
| --- | --- | --- |
| YPVVVAESMY | peptide exchange yield | 20 to 50% |
| STIRGELFF | peptide exchange yield | 20 to 50% |
| HSDLLEDSKY | peptide exchange yield | 50 to 75% |

Shift focus to the following entry.
Return reported peptide exchange yield; argument: `ITDEDEDMLSY`
50 to 75%
